Method description: Intrinsic clearance in rat hepatocytes assessed per million cells
Assay type: ADME, cell-based, Hepatocyte
Test context: read-out: CLH
We use 9 µL/min/1e6 cells as the dividing line for hepatocyte CLint: on or above the line is class 1, below is class 0.

Solved cases (2 shown):
## Input Answer whether hepatocyte CLint of COc1cc(F)c(CNc2ncc(-c3cccnc3C)c3nncn23)c2c1OCC2 is greater than or equal to 9 µL/min/1e6 cells.
## Output class 0

## Input Answer whether hepatocyte CLint of Cc1ncccc1-c1cnc(NCc2c(F)cc(C#N)c3c2CCO3)n2cnnc12 is greater than or equal to 9 µL/min/1e6 cells.
## Output class 1

---
## Input Answer whether hepatocyte CLint of Cc1ncccc1-c1cnc(NCc2c(F)ccc3c2CCO3)n2cnnc12 is greater than or equal to 9 µL/min/1e6 cells.
## Output class 0

## Input Answer whether hepatocyte CLint of Cc1ncccc1-c1cnc(NCc2c(F)cc(N)c3c2CCO3)n2cnnc12 is greater than or equal to 9 µL/min/1e6 cells.
## Output class 0

## Input Answer whether hepatocyte CLint of Cc1ncccc1-c1cnc(NCc2c(F)cc(O)c3c2CCO3)n2cnnc12 is greater than or equal to 9 µL/min/1e6 cells.
## Output class 1

###

Method description: Solubility of compound in PBS at pH 7.4 measured for 24 hrs
Type: physicochemical
Property measured: log10(solubility at 24 h) (log10 of the value in µM)
Would you kindly interpret these values as log10 of solubility at 24 h expressed in µM?

## Input Given the molecule COc1cc(F)c(CNc2ncc(-c3cccnc3C)c3nncn23)c2c1OCC2 , write its reported log10(solubility at 24 h).
## Output 1.32

## Input Given the molecule Cc1ncccc1-c1cnc(NCc2c(F)cc(O)c3c2CCO3)n2cnnc12 , write its reported log10(solubility at 24 h).
## Output 0.70

## Input Given the molecule Cc1ncccc1-c1cnc(NCc2c(F)cc(C#N)c3c2CCO3)n2cnnc12 , write its reported log10(solubility at 24 h).
## Output 0.48

## Input Given the molecule Cc1ncccc1-c1cnc(NCc2c(F)cc(Cl)c3c2CCO3)n2cnnc12 , write its reported log10(solubility at 24 h).
## Output -0.70

## Input Given the molecule Cc1ncccc1-c1cnc(NCc2c(F)cc(F)c3c2CCO3)n2cnnc12 , write its reported log10(solubility at 24 h).
## Output 0.60

###

These compounds were tested on Polycomb protein EED (Homo sapiens, UniProt O75530); pKd is the recorded read-out.
Sequence (O75530 whole entry): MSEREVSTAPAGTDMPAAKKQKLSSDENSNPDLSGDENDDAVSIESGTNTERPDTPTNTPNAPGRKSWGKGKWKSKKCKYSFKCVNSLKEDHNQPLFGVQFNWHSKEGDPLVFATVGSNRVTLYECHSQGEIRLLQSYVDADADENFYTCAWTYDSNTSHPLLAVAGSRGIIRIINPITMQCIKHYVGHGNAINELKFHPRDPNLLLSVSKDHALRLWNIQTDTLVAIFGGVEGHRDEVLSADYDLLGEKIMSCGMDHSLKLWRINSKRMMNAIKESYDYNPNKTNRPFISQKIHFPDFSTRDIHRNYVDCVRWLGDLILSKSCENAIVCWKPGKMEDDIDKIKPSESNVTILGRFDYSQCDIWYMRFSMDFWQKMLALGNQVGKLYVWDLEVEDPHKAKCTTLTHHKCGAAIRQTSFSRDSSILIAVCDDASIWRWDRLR
pKd (log units): -log10 of the concentration in mol/L.

## Input Given the compound Cc1ncccc1-c1cnc(NCc2c(F)cc(N)c3c2CCO3)n2cnnc12 , write its reported pKd.
## Output 6.30

---
## Input Given the compound Cc1ncccc1-c1cnc(NCc2c(F)cc(Cl)c3c2CCO3)n2cnnc12 , write its reported pKd.
## Output 5.62

## Input Given the compound Cc1ncccc1-c1cnc(NCc2c(F)ccc3c2CCO3)n2cnnc12 , write its reported pKd.
## Output 6.40

###

Method description: Intrinsic clearance in human liver microsomes
Type: ADME, Microsome
Test context: read-out: CLH
Labelling field: enter YES if recorded microsomal CLint is less than 20 µL/min/mg. Enter NO if it equals or exceeds that cut-off.

Solved cases (4 shown):
## Input Say whether its microsomal CLint is strictly beneath 20 µL/min/mg. Entry: Cc1ncccc1-c1cnc(NCc2c(F)cc(F)c3c2CCO3)n2cnnc12
## Output YES

## Input Say whether its microsomal CLint is strictly beneath 20 µL/min/mg. Entry: Cc1ncccc1-c1cnc(NCc2c(F)cc(O)c3c2CCO3)n2cnnc12
## Output YES

## Input Say whether its microsomal CLint is strictly beneath 20 µL/min/mg. Entry: Cc1ncccc1-c1cnc(NCc2c(F)cc(N)c3c2CCO3)n2cnnc12
## Output YES

## Input Say whether its microsomal CLint is strictly beneath 20 µL/min/mg. Entry: Cc1ncccc1-c1cnc(NCc2c(F)ccc3c2CCO3)n2cnnc12
## Output YES

Now turn to the next molecule.
## Input Say whether its microsomal CLint is strictly beneath 20 µL/min/mg. Entry: Cc1ncccc1-c1cnc(NCc2c(F)cc(C#N)c3c2CCO3)n2cnnc12
## Output NO

###

Method description: Lipophilicity, log D of the compound in Octanol/phosphate buffer at pH 7.4 by shake-flask method
Type: physicochemical
We use 2 as the dividing line for logD: on or above the line is True, below is False.

Solved cases (4 shown):
## Input Answer whether logD of Cc1ncccc1-c1cnc(NCc2c(F)cc(N)c3c2CCO3)n2cnnc12 is greater than or equal to 2.
## Output False

## Input Answer whether logD of Cc1ncccc1-c1cnc(NCc2c(F)cc(F)c3c2CCO3)n2cnnc12 is greater than or equal to 2.
## Output True

## Input Answer whether logD of COc1cc(F)c(CNc2ncc(-c3cccnc3C)c3nncn23)c2c1OCC2 is greater than or equal to 2.
## Output True

## Input Answer whether logD of Cc1ncccc1-c1cnc(NCc2c(F)cc(Cl)c3c2CCO3)n2cnnc12 is greater than or equal to 2.
## Output True

---
## Input Answer whether logD of Cc1ncccc1-c1cnc(NCc2c(F)cc(O)c3c2CCO3)n2cnnc12 is greater than or equal to 2.
## Output False

## Input Answer whether logD of Cc1ncccc1-c1cnc(NCc2c(F)ccc3c2CCO3)n2cnnc12 is greater than or equal to 2.
## Output True

## Input Answer whether logD of Cc1ncccc1-c1cnc(NCc2c(F)cc(C#N)c3c2CCO3)n2cnnc12 is greater than or equal to 2.
## Output True
